Entries annotated with measured DC50
# TGT: BCL-XL (Homo sapiens, UniProt Q07817)
# Construct: BCL-XL degradation results in MOLT-4 cells for compounds of the invention; endogenous in cells; host or cells: MOLT-4
# Sequence (Q07817 whole entry): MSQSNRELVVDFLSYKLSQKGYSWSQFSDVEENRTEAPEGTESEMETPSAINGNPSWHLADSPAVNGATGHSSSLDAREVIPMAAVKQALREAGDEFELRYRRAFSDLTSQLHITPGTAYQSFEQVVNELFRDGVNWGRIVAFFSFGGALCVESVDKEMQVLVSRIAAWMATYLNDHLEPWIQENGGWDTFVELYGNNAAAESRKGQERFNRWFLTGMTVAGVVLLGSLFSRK
# PROCEDURE SUMMARY: BCL-XL degradation assay in MOLT-4 cells (ELISA, 6 h)
# Type: cell-based
# CONDITION: read-out: Bcl-xL ELISA in MOLT-4 degradation 6 h: External Abs-DC50

As a guide, the following entries are already answered.
MOLECULE	DC50
Cc1ncsc1-c1ccc([C@H](C)NC(=O)[C@@H]2C[C@@H](O)CN2C(=O)[C@@H](NC(=O)CCCCCCN2CCN(CC[C@H](CSc3ccccc3)Nc3ccc(S(=O)(=O)NC(=O)c4ccc(N5CCC([C@@H](O)c6ccccc6-c6ccc(Cl)cc6)CC5)cc4)cc3S(=O)(=O)C(F)(F)F)CC2)C(C)(C)C)cc1	10 to 100 nM
Cc1ncsc1-c1ccc(CNC(=O)[C@@H]2C[C@@H](O)CN2C(=O)[C@@H](NC(=O)C2(F)CC2)C(C)(C)C)c(OCCN2CCN(CC[C@H](CSc3ccccc3)Nc3ccc(S(=O)(=O)NC(=O)c4ccc(N5CCC6(CC5)CC(N5CCC[C@H]5c5ccccc5C5CC5)C6)cc4)cc3S(=O)(=O)C(F)(F)F)CC2)c1	10 to 100 nM
Cc1ncsc1-c1ccc([C@H](C)NC(=O)[C@@H]2C[C@@H](O)CN2C(=O)[C@@H](NC(=O)CCCCCC(=O)N2CCN(CCCNc3ccc(S(=O)(=O)NC(=O)c4ccc(N5CCC([C@@H](O)c6ccccc6-c6ccc(Cl)cc6)CC5)cc4Oc4cnc5[nH]ccc5c4)cc3S(=O)(=O)C(F)(F)F)CC2)C(C)(C)C)cc1 (single isomer, unassigned)	500 to 1000 nM
Cc1ncsc1-c1ccc([C@H](C)NC(=O)[C@@H]2C[C@@H](O)CN2C(=O)[C@@H](NC(=O)CCCCCCCCN2CCN(Cc3ccc(-c4ccc(Cl)cc4)c(CN4CCN(c5ccc(C(=O)NS(=O)(=O)c6ccc(N[C@H](CCN(C)C)CSc7ccccc7)c([N+](=O)[O-])c6)cc5)CC4)c3)CC2)C(C)(C)C)cc1	500 to 1000 nM
Cc1ncsc1-c1ccc([C@H](C)NC(=O)[C@@H]2C[C@@H](O)CN2C(=O)[C@@H](NC(=O)C2CCN(c3ccc(NC(=O)c4ccc(-c5ccc(Cl)cc5)c([C@H](O)C5CCN(c6ccc(C(=O)NS(=O)(=O)c7ccc(N[C@H](CCN(C)CCO)CSc8ccccc8)c(S(=O)(=O)C(F)(F)F)c7)cc6)CC5)c4)cc3)CC2)C(C)(C)C)cc1 (single isomer, unassigned)	500 to 1000 nM

The record that follows has no DC50 shown yet.
Query DC50 on BCL-XL (Homo sapiens, UniProt Q07817) for Cc1ncsc1-c1ccc([C@H](C)NC(=O)[C@@H]2C[C@@H](O)CN2C(=O)[C@@H](NC(=O)CCCCCC(=O)N2CCN(Cc3ccc(-c4ccc(Cl)cc4)c(CN4CCN(c5ccc(C(=O)NS(=O)(=O)c6ccc(N[C@H](CCN(C)C)CSc7ccccc7)c([N+](=O)[O-])c6)cc5)CC4)c3)CC2)C(C)(C)C)cc1
500 to 1000 nM
